# Tested on: human ovarian cancer cell line PA-1
# measurement notes: Test 2 of anti-proliferative activity against tumor cells (Cell-Titer Glo)
# Format: cell-based
# protocol conditions: read-out: PA-1 Anti-proliferative activity IC50; PA-1 cells, 5 days, Cell-Titer Glo
measurement name: IC50 (nM)
Could you give me the number in nM? Just the number is fine.

INPUT: Can you look up the measured IC50 of CC[C@@]1(O)C(=O)OCc2c1cc1n(c2=O)Cc2c-1nc1cc3c(cc1c2CNC(=O)C(O)C1CC1)OCO3 (single isomer, unassigned) [Compound 14-P2] for me?
OUTPUT: 0.9

* * *

# measured on: CYP2D6 (Homo sapiens (Human), UniProt P10635)
# Sequence (P10635 whole entry): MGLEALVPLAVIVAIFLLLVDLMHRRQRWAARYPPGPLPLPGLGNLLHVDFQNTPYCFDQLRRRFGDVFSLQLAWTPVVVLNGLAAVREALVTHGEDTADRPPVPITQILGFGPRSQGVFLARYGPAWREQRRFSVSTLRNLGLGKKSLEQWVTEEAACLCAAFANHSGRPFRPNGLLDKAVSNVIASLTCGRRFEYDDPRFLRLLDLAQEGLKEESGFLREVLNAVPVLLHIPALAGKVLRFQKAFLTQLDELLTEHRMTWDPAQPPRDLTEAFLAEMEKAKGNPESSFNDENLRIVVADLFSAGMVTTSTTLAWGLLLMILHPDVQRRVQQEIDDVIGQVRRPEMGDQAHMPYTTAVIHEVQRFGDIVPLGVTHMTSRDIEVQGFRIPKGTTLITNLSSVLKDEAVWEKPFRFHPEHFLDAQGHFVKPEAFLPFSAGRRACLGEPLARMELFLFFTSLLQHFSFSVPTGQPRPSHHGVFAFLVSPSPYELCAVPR
# measurement notes: Inhibitory effect on CYP enzymatic activity in human liver microsomes
# Type: in vitro ADME
# protocol conditions: read-out: Inhibition on CYP2D6 IC50; human liver microsomes, substrate dextromethorphan
measurement name: IC50

INPUT: Returns the measured IC50 for the input molecule. Input: CC[C@@]1(O)C(=O)OCc2c1cc1n(c2=O)Cc2c-1nc1cc3c(cc1c2CNC(=O)C(O)C1CC1)OCO3 (single isomer, unassigned) [Compound 14-P1]
OUTPUT: > 50 µM
